- Target System: 5-hydroxytryptamine receptor 6 (Homo sapiens)
- Sequence (P50406 whole entry): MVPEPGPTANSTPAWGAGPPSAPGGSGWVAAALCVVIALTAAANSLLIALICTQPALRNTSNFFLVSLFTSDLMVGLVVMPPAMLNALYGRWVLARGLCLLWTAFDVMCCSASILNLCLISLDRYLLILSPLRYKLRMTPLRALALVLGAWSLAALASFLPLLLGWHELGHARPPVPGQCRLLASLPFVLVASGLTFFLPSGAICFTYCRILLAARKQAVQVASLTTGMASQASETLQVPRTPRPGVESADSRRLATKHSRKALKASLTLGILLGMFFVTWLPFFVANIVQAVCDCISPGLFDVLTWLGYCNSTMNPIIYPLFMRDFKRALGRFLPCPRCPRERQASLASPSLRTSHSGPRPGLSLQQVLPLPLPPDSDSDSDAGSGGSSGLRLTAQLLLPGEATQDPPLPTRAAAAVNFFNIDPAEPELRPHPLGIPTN
pKi: −log10 of the molar value.
Measured Endpoint: pKi

Exercise: Give the measured pKi for COc1c(OCCF)cccc1C(O)C1CCN(CCc2ccc([N+](=O)[O-])cc2)CC1 (stereo unspecified)
Key: < 5.00

---

- Target System: 5-hydroxytryptamine receptor 5A (Homo sapiens, UniProt P47898)
- Sequence (P47898 whole entry): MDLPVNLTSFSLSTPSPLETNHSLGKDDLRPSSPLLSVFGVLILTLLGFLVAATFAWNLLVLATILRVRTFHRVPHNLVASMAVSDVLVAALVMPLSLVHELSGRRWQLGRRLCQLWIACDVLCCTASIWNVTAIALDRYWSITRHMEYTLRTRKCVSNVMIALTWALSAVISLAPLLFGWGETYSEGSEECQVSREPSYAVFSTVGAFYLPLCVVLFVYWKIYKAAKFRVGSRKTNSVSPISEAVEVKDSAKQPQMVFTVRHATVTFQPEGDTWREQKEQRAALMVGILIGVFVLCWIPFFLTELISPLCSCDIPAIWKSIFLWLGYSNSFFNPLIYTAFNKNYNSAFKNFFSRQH
Measured Endpoint: Ki (µM)
The reply should contain only the number, in µM.

Exercise: Answer briefly: Ki recorded on 5-hydroxytryptamine receptor 5A (Homo sapiens, UniProt P47898) for COc1c(OCCF)cccc1[C@H](O)C1CCN(CCc2ccc(F)cc2)CC1
Key: 6.81

---

logP overview
- Procedure Text: physchem
- Assay Conditions: Soerensen buffer
Format: numeric value only, no unit, no commentary.

Solved entries:
Compound	logP
COc1c(O)cccc1C(O)C1CCN(CCc2ccc(F)cc2)CC1 (stereo not drawn)	2.27
COc1c(O)cccc1C(O)C1CCN(CCc2ccc([N+](=O)[O-])cc2)CC1 (stereo not drawn)	1.9
COc1ccc(CCN2CCC(C(=O)c3cccc(OCCF)c3OC)CC2)cc1	3.02
COc1c(OCCF)cccc1C(O)C1CCN(C(=O)Cc2ccccc2)CC1 (stereo not drawn)	1.57
COc1c(OCCF)cccc1[C@H](O)C1CCN(CCc2ccc(F)cc2)CC1	2.8

Exercise: For the compound COc1cccc([C@H](O)C2CCN(CCc3ccc(F)cc3)CC2)c1OC , give its measured logP value.
Key: 2.98

Exercise: Could you please provide reported logP for COc1c(OCCF)cccc1C(=O)C1CCN(CCc2ccc([N+](=O)[O-])cc2)CC1 ? Thanks!
Key: 2.71

Exercise: Output logP of COc1c(OCCF)cccc1C(O)C1CCN(CCc2ccc(F)cc2)CC1 (stereo not drawn)
Key: 2.8

---

- Target System: 5-hydroxytryptamine receptor 2A (Rattus norvegicus, UniProt P14842)
- Sequence (P14842 whole entry): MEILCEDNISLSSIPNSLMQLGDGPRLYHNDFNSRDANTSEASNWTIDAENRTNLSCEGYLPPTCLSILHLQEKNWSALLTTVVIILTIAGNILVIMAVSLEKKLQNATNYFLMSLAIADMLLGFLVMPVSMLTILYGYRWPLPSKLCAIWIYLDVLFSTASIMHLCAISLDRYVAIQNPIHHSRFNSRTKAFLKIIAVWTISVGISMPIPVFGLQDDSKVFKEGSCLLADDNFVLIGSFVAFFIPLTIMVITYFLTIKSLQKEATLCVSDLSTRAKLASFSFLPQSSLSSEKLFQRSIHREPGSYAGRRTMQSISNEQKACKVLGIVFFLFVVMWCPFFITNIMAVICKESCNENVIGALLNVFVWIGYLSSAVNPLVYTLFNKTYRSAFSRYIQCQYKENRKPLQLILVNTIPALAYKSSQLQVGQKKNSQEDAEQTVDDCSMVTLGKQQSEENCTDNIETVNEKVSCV
- Procedure Text: biochemical
Measured Endpoint: Ki (nM)
Write down the numeric answer in nM and omit the unit.

Compound	Ki / nM
COc1cccc(C(O)C2CCN(CCc3ccc(C)cc3)CC2)c1OC (configuration not stated)	0.31
COc1c(OCCF)cccc1C(=O)C1CCN(CCc2ccc([N+](=O)[O-])cc2)CC1	118
COc1c(OCCF)cccc1C(=O)C1CCN(CCc2ccc(F)cc2)CC1	3.23
COc1ccc(CCN2CCC(C(O)c3cccc(OC)c3OC)CC2)cc1 (configuration not stated)	55
COc1c(O)cccc1C(O)C1CCN(CCc2ccc(F)cc2)CC1 (configuration not stated)	1.24

Exercise: Provide Ki, tested on 5-hydroxytryptamine receptor 2A (Rattus norvegicus, UniProt P14842), for COc1c(O)cccc1[C@H](O)C1CCN(CCc2ccc(F)cc2)CC1 .
Key: 0.25

Exercise: // fetch Ki; item: COc1c(O)cccc1C(=O)C1CCN(CCc2ccc(F)cc2)CC1 ; system: 5-hydroxytryptamine receptor 2A (Rattus norvegicus, UniProt P14842)
Key: 1.34

Exercise: Lab note: 5-hydroxytryptamine receptor 2A (Rattus norvegicus, UniProt P14842) assay, enter Ki for COc1c(OCCF)cccc1C(O)C1CCN(C(=O)Cc2ccccc2)CC1 (configuration not stated) here
Key: 1990

Exercise: Name the recorded Ki of COc1c(OCCF)cccc1C(O)C1CCN(CCc2ccccc2)CC1 (configuration not stated) , assay system 5-hydroxytryptamine receptor 2A (Rattus norvegicus, UniProt P14842).
Key: 1.63

---

- Target System: D(2) dopamine receptor (Homo sapiens, UniProt P14416)
- Sequence (P14416 whole entry): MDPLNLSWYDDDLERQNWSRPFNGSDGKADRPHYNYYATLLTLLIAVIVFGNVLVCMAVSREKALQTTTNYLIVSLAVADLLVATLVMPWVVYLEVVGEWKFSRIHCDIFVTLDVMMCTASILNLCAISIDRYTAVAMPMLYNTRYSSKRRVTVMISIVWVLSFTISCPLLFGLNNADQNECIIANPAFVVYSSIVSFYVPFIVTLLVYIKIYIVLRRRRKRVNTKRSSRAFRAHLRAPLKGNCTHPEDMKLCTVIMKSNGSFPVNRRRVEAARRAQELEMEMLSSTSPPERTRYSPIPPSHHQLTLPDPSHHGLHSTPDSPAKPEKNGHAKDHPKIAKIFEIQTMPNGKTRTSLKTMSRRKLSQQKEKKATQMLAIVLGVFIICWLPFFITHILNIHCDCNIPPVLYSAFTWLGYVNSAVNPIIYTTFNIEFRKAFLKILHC
Measured Endpoint: pKi
Friendly reminder that pKi comes from taking -log10 of the concentration in mol/L.

Compound String	Measured Endpoint	Measurement
COc1c(OCCF)cccc1C(=O)C1CCN(CCc2ccc(F)cc2)CC1	pKi	5.42

Then this compound:
Exercise: Enter pKi (test system D(2) dopamine receptor (Homo sapiens, UniProt P14416)) for COc1c(OCCF)cccc1[C@H](O)C1CCN(CCc2ccc(F)cc2)CC1
Key: 5.57

---

- Target System: 5-hydroxytryptamine receptor 2B (Homo sapiens)
- Sequence (P41595 whole entry): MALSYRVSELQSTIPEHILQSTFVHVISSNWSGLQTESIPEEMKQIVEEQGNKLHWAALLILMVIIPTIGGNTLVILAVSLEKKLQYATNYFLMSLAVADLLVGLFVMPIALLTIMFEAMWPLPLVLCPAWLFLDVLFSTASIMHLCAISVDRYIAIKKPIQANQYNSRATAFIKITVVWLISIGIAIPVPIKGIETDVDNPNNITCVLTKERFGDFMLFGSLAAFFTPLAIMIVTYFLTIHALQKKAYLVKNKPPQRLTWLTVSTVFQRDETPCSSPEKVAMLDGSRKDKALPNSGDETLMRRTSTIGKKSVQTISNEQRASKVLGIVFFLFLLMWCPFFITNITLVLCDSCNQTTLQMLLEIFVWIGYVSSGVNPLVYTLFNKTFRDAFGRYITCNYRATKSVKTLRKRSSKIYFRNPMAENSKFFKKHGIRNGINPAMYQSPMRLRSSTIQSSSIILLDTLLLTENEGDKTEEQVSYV
Measured Endpoint: pKi
Scale explanation: pKi corresponds to minus log10 of a concentration expressed in moles per litre.

Exercise: Find the measured pKi of COc1c(OCCF)cccc1C(O)C1CCN(CCc2ccc(F)cc2)CC1 (stereo not drawn) with 5-hydroxytryptamine receptor 2B (Homo sapiens) as test system.
Key: 6.52

Exercise: Retrieve pKi on 5-hydroxytryptamine receptor 2B (Homo sapiens); query COc1c(OCCF)cccc1C(=O)C1CCN(CCc2ccc(F)cc2)CC1
Key: 6.02

Exercise: Name the value of pKi reported for COc1c(OCCF)cccc1[C@H](O)C1CCN(CCc2ccc(F)cc2)CC1 when tested on 5-hydroxytryptamine receptor 2B (Homo sapiens).
Key: 6.49

---

Items are presented alongside their recorded pKi.
- Target System: UniProt:P13945
- Sequence (P13945 whole entry): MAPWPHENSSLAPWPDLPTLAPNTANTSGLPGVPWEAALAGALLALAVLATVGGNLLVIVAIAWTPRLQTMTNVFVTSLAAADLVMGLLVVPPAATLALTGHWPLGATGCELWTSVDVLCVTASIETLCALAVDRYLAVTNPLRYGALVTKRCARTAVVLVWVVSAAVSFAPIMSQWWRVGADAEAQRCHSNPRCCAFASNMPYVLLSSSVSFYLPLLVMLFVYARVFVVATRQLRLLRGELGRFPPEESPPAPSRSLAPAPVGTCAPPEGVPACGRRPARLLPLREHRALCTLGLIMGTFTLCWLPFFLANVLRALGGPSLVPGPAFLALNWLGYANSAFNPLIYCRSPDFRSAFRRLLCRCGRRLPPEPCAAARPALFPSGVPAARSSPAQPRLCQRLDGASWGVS
pKi: −log10 of the molar value.

Exercise: Supply pKi measured with UniProt:P13945 for COc1c(OCCF)cccc1C(=O)C1CCN(CCc2ccc(F)cc2)CC1 .
Key: < 5.00

Exercise: Would you please give the reported pKi of COc1c(OCCF)cccc1C(O)C1CCN(CCc2ccc(F)cc2)CC1 (stereo not drawn) with UniProt:P13945?
Key: < 5.00

Exercise: # return pKi of COc1c(OCCF)cccc1[C@H](O)C1CCN(CCc2ccc(F)cc2)CC1 (system: UniProt:P13945)
Key: < 5.00

---

Below are pKi values measured for D(1A) dopamine receptor (Homo sapiens).
// field semantics: pKi = negative decimal log of concentration (mol/L)

Observe how each entry below is paired with its result.
Molecule	pKi
COc1c(OCCF)cccc1C(=O)C1CCN(CCc2ccc(F)cc2)CC1	5.85
COc1c(OCCF)cccc1C(O)C1CCN(CCc2ccc(F)cc2)CC1 (stereo not drawn)	6.05

Exercise: Return reported pKi for target or system D(1A) dopamine receptor (Homo sapiens), item COc1c(OCCF)cccc1[C@H](O)C1CCN(CCc2ccc(F)cc2)CC1 .
Key: 5.42

---

- Target System: 5-hydroxytryptamine receptor 1D (Homo sapiens, UniProt P28221)
- Sequence (P28221 whole entry): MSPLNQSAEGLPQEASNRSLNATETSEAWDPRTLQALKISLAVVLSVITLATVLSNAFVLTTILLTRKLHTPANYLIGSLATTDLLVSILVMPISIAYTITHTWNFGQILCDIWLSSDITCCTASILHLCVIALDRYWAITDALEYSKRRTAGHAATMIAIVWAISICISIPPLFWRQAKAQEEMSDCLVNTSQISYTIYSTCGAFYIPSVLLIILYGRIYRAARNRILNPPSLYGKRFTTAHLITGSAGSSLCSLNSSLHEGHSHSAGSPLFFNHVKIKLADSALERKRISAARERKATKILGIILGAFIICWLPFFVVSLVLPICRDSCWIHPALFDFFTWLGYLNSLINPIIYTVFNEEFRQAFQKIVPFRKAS
Measured Endpoint: Ki (nM)
# unit: nM | format: bare number

As a guide, the following entries are already answered.
Molecule	Ki / nM
COc1c(OCCF)cccc1C(O)C1CCN(CCc2ccc([N+](=O)[O-])cc2)CC1 (centres undefined)	3420
COc1c(OCCF)cccc1C(O)C1CCN(CCc2ccc(F)cc2)CC1 (centres undefined)	706
COc1c(OCCF)cccc1[C@H](O)C1CCN(CCc2ccc(F)cc2)CC1	1060

// next item, Ki requested
Exercise: Tell me Ki reported for COc1c(OCCF)cccc1C(=O)C1CCN(CCc2ccc(F)cc2)CC1
Key: 713

---

A set of molecules tested on D(1B) dopamine receptor (Homo sapiens), with measured pKi:
As a rule, pKi stands for the negative log10 of the concentration, concentration in M.

Exercise: Look up D(1B) dopamine receptor (Homo sapiens) data: pKi of COc1c(OCCF)cccc1C(=O)C1CCN(CCc2ccc(F)cc2)CC1 , then report it.
Key: 5.13

Exercise: Specify pKi for COc1c(OCCF)cccc1[C@H](O)C1CCN(CCc2ccc(F)cc2)CC1 , system D(1B) dopamine receptor (Homo sapiens).
Key: 5.13

---

- Target System: Alpha-1A adrenergic receptor (Homo sapiens, UniProt P35348)
- Sequence (P35348 whole entry): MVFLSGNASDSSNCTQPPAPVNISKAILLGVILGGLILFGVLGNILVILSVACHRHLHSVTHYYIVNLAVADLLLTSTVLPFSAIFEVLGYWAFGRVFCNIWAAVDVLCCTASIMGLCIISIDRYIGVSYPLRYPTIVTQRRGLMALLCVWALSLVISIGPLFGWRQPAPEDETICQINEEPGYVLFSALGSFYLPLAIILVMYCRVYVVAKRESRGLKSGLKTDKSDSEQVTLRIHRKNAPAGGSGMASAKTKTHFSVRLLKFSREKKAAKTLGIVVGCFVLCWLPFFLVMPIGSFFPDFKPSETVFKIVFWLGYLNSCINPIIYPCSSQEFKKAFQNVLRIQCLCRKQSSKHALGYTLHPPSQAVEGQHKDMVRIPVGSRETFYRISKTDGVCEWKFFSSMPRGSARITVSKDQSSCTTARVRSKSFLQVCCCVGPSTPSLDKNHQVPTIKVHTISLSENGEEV
Measured Endpoint: pKi
API: returns pKi as number; meaning -log10 of concentration in mol/L.

Exercise: Provide pKi value for the following compound: COc1c(OCCF)cccc1[C@H](O)C1CCN(CCc2ccc(F)cc2)CC1
Key: 6.47

---

Entries with reported pKi on D(4) dopamine receptor (Homo sapiens, UniProt P21917)
Sequence (P21917 whole entry): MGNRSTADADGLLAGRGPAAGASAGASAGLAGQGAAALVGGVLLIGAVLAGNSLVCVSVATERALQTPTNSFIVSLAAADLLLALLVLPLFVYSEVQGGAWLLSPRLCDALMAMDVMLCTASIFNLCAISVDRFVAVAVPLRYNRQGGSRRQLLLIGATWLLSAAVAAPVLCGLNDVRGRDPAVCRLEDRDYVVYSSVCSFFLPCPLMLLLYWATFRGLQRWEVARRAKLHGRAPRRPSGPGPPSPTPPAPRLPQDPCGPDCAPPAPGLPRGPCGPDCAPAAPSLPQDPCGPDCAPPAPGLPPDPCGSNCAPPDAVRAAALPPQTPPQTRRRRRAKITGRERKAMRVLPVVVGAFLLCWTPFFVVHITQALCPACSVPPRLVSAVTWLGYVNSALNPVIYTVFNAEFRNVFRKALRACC
To interpret pKi, take it as minus log10 of a concentration measured in moles per litre.

Molecule	pKi
COc1c(OCCF)cccc1C(=O)C1CCN(CCc2ccc(F)cc2)CC1	6.76
COc1c(OCCF)cccc1[C@H](O)C1CCN(CCc2ccc(F)cc2)CC1	6.35

Shifting focus to the molecule that follows.
Exercise: Entry COc1c(OCCF)cccc1C(O)C1CCN(CCc2ccc(F)cc2)CC1 (stereo not drawn) needs its pKi filled in; supply it.
Key: 6.26
